assay: Metabolic stability in rat liver microsomes (RLMs); conditions: rat, microsomes, CL (ul/min/mg protein) R2, RLM CL; replicate R2
Measurement Name: microsomal CLint (µL/min/mg)

- Molecule: "O=C(N[C@H]1CSCCS(=O)(=O)CCSCCNC(=O)C2(CC2)CNC(=O)[C@H](Cc2ccccc2)NC1=O)c1ccc(Cl)s1"
  Reading Unit: "µL/min/mg"
  Endpoint Result: 51.4
- Molecule: "O=C1C[C@H]2CCCN2C(=O)[C@H](Cc2ccccc2)NC(=O)[C@@H](NC(=O)c2ccc(Cl)s2)CSCCS(=O)(=O)CCSCCN1 [peptide 11]"
  Reading Unit: "µL/min/mg"
  Endpoint Result: 68.2
- Molecule: "C[C@@H]1NC(=O)[C@@H](NC(=O)c2ccc(Cl)s2)CSCc2cccc(n2)CSCCNC(=O)c2ccc(cc2)CNC1=O"
  Reading Unit: "µL/min/mg"
  Endpoint Result: 121
